Provide the recorded GI50 for the entries that follow.
Test system: IGROV-1
Experiment: NCI tumour cell line growth inhibition, 48 h
Activity calls are given as the source filed them. Rule as the data show it: active = GI50 up to about 1.1 µM and inactive = higher.

Hi! What's the reported GI50 for COP(=O)(OC)C(Cc1cn(C(C)=O)c2ccccc12)C(=O)O (stereo not given) on IGROV-1?
> 100 µM (inactive)

Hi! What's the reported GI50 for COC(=O)c1ccccc1/C=C1\Cc2cc(C)c(C)cc2C1=O on IGROV-1?
> 100 µM (inactive)

Hi! What's the reported GI50 for Cc1nc(O)c(O)c(CN2CCCCC2)n1 on IGROV-1?
> 100 µM (inactive)

Hi! What's the reported GI50 for Cc1cccc(Nc2nc3ccccc3nc2NS(=O)(=O)c2ccccc2)c1 on IGROV-1?
19.9 µM (inactive)

Hi! What's the reported GI50 for C[C@@H](c1ccccc1)N(CC#N)C1CCC[C@H]1O (stereo not given in full) on IGROV-1?
> 100 µM (inactive)

----------
System: MOLT-4
Assay: NCI tumour cell line growth inhibition, 48 h
Active and inactive are the calls of the source. No stated cut-off is given here; in the data, active = GI50 up to about 1.1 µM and inactive = higher.
MEASURED_ENDPOINT: GI50

Hi! What's the reported GI50 for O=C(/C=C/c1ccc(O)cc1)c1cc(O)cc(O)c1 on MOLT-4?
16.3 µM (inactive)

Hi! What's the reported GI50 for CC1(C)C(=NN=C(N)N)C(C)(C)C1=NN=C(N)N on MOLT-4?
> 100 µM (inactive)

Hi! What's the reported GI50 for C[n+]1c(-c2ccc(NC(=O)c3ccc(C(=O)Nc4ccc(-c5cn6ccccc6[n+]5C)cc4)cc3)cc2)cn2ccccc21 on MOLT-4?
> 67.9 µM (inactive)

Hi! What's the reported GI50 for CCc1nc2ccc(C(F)(F)F)cc2[nH]c1=O on MOLT-4?
> 100 µM (inactive)

Hi! What's the reported GI50 for O=C(O)CC(CC(=O)O)C(=O)O on MOLT-4?
> 100 µM (inactive)

Hi! What's the reported GI50 for O=S(=O)(N/N=C/c1cccc(Cl)c1Cl)c1ccccc1 on MOLT-4?
26.9 µM (inactive)

Hi! What's the reported GI50 for Cc1c(OCc2ccccc2)c(=O)ccn1CCc1c[nH]c2ccccc12 on MOLT-4?
1.9 µM (inactive)

Hi! What's the reported GI50 for CC1(C)Cc2c(sc3[nH]c(=S)[nH]c(=S)c23)CS1 on MOLT-4?
43 µM (inactive)

Hi! What's the reported GI50 for Cc1cn(C2CC(n3cncn3)C(C(C)O)O2)c(=O)[nH]c1=O (stereo unspecified) on MOLT-4?
> 100 µM (inactive)

Hi! What's the reported GI50 for CC1=NN(C(=O)CC(=O)Nc2ccccc2)C(=O)C1/N=N/c1ccc(S(N)(=O)=O)cc1 (stereo unspecified) on MOLT-4?
37.5 µM (inactive)

Hi! What's the reported GI50 for CCOn1c(C2(CC3CCN(C(=O)c4ccccc4)CC3)OCCO2)cc2ccccc21 on MOLT-4?
12.8 µM (inactive)

Hi! What's the reported GI50 for O=C(NC(c1ccccc1)C(O)C(=O)OCc1ccc2c(c1)C(=O)c1ccccc1C2=O)c1ccccc1 (stereo unspecified) on MOLT-4?
74.6 µM (inactive)

Hi! What's the reported GI50 for COC1=CC(=O)C2C(C1=O)C(c1ccc(Cl)cc1)[C@@H]2C (stereo partly specified) on MOLT-4?
31.6 µM (inactive)

Hi! What's the reported GI50 for CC(O)/C=C/C1OC(=O)CC1Nc1ccc(C=O)cc1 (stereo unspecified) on MOLT-4?
10.8 µM (inactive)

Hi! What's the reported GI50 for O=[N+]([O-])c1ccc(-[n+]2ccc3ccccc3c2)c([N+](=O)[O-])c1 on MOLT-4?
2.83 µM (inactive)

Hi! What's the reported GI50 for Cc1nnc2sc(NN)nn12 on MOLT-4?
17.5 µM (inactive)

Hi! What's the reported GI50 for O=C1C2C3C=C4c5ccccc5N(c5ccccc5)C4([C@@H]2C(=O)N1c1ccc(F)cc1)[C@H]1C(=O)N(c2ccc(F)cc2)C(=O)[C@@H]31 (stereo partly specified) on MOLT-4?
> 100 µM (inactive)

Hi! What's the reported GI50 for c1ccc(-c2nn(-c3ccccc3)[n+](-c3ccccc3)n2)cc1 on MOLT-4?
19.1 µM (inactive)

Hi! What's the reported GI50 for NS(=O)(=O)c1cc2c(cc1Cl)NC(/C(=N/NC(=O)c1ccncc1)C1C(=O)NC(=O)NC1=O)=NS2(=O)=O on MOLT-4?
> 100 µM (inactive)

Hi! What's the reported GI50 for Cc1cc2c(=O)cc(-c3ccc(F)cc3)oc2c(C(=O)O)c1C on MOLT-4?
> 100 µM (inactive)

Hi! What's the reported GI50 for Cc1cccc2c1NC(c1c(C)[nH]c3ccccc13)C2 (stereo unspecified) on MOLT-4?
63 µM (inactive)

Hi! What's the reported GI50 for O=C1N(c2ccccc2)C2(c3ccccc3)CC3CCCC13S2 (stereo unspecified) on MOLT-4?
24.2 µM (inactive)

Hi! What's the reported GI50 for CCOC(=O)C1C(c2ccc(Cl)cc2Cl)NC(c2ccc(C)cc2)C(C(=O)OC)S1(=O)=O (stereo unspecified) on MOLT-4?
5.46 µM (inactive)

Hi! What's the reported GI50 for CSc1nc(-c2cc3c(c(SC)n2)CCC3)cc2c1CCC2 on MOLT-4?
> 100 µM (inactive)

Hi! What's the reported GI50 for COC(=O)N1[C@H]2Cc3c(OC)c(C)c(OC)c(OC)c3[C@@H]1/C(=C\c1cc(OC)c(OC)c(C)c1OC)N(Cc1ccccc1)C2=O on MOLT-4?
16.1 µM (inactive)

Hi! What's the reported GI50 for C[C@@H](c1ccccc1)N(CC#N)C1CCC[C@H]1O (stereo partly specified) on MOLT-4?
> 100 µM (inactive)

Hi! What's the reported GI50 for COc1ccc(-c2cc(=O)c3c(OC)cccc3o2)c(OC)c1OC on MOLT-4?
54.6 µM (inactive)

Hi! What's the reported GI50 for Cc1ccc(-c2nnc(-c3nn(-c4ccccc4)c4nc5ccccc5nc34)o2)cc1 on MOLT-4?
16 µM (inactive)

Hi! What's the reported GI50 for Nc1c(S(=O)(=O)O)cc(Nc2cccc(S(N)(=O)=O)c2)c2c1C(=O)c1ccccc1C2=O on MOLT-4?
> 100 µM (inactive)

Hi! What's the reported GI50 for COc1ccc(OC)c(NC(=O)C(=O)Nn2c(S)nc3ccccc3c2=O)c1 on MOLT-4?
> 100 µM (inactive)

Hi! What's the reported GI50 for CCN(CC)CCC(=O)c1ccc(Sc2ccc(F)cc2)cc1 on MOLT-4?
15.1 µM (inactive)

Hi! What's the reported GI50 for O=Cc1cc(C(=O)OCc2ccccc2)n(S(=O)(=O)c2ccccc2)c1 on MOLT-4?
23 µM (inactive)

Hi! What's the reported GI50 for CC(C)(C)CC(C)(C)c1cc2c(O)c(c1)Cc1cc(C(C)(C)CC(C)(C)C)cc(c1O)Cc1cc(C(C)(C)CC(C)(C)C)cc(c1O)Cc1cc(C(C)(C)CC(C)(C)C)cc(c1O)Cc1cc(C(C)(C)CC(C)(C)C)cc(c1O)Cc1cc(C(C)(C)CC(C)(C)C)cc(c1O)Cc1cc(C(C)(C)CC(C)(C)C)cc(c1O)Cc1cc(C(C)(C)CC(C)(C)C)cc(c1O)C2 on MOLT-4?
> 100 µM (inactive)

Hi! What's the reported GI50 for COc1ccc(C(=O)/C=C/c2ccc(OCC#N)cc2)cc1 on MOLT-4?
23.3 µM (inactive)

Hi! What's the reported GI50 for CC(C)(C)OC(=O)[N+](=N)C(=O)C1CCC(=O)N1C(=O)OCc1ccccc1 (stereo unspecified) on MOLT-4?
> 100 µM (inactive)

Hi! What's the reported GI50 for CC(C)(C)NCC(O)COc1cccc2[nH]c(C#N)cc12 (stereo unspecified) on MOLT-4?
> 100 µM (inactive)

Hi! What's the reported GI50 for C(=C\c1cc(-c2ccc3ccccc3n2)nc2ccc3ccccc3c12)/c1ccc2ccccc2n1 on MOLT-4?
> 100 µM (inactive)

Hi! What's the reported GI50 for CCCCCCCCCCCCc1ccc(S(=O)(=O)O)cc1 on MOLT-4?
> 100 µM (inactive)

Hi! What's the reported GI50 for Cc1cccc(NS(=O)(=O)c2ccc(/N=N/c3c(O)c(C(=O)O)cc4ccccc34)cc2)n1 on MOLT-4?
> 100 µM (inactive)

Hi! What's the reported GI50 for Cc1cccc(C)c1NC(=O)C(=O)Nn1c(NN)nc2ccccc2c1=O on MOLT-4?
> 100 µM (inactive)

Hi! What's the reported GI50 for Cc1noc2cccc(O)c12 on MOLT-4?
> 100 µM (inactive)
